Reference source for all entries: ChEMBL document CHEMBL6096672

# Protocol text: Clearance in IV-dosed cynomolgous monkey
# Assay type: ADME, Macaca fascicularis
# Experimental context: cynomolgus monkey, in vivo
Measure name: clearance (mL/min/kg)
Numeric answer only, unit mL/min/kg assumed.

Looking for the measured clearance of `CCn1nc(-c2cnc(N)c(OC(F)F)c2)c2ccn([C@@H]3CCC(F)(F)C[C@@H]3OC)c(=O)c21` , can you help?
5.5

----------
# Protocol text: Inhibition of human DLK transfected in HEK293-T-REx cells assessed as decrease in JNK phosphorylation incubated for 5 hrs by HTRF assay
# Assay type: cell-based
Quick reference for IC50 among some molecules

Would you please look over these solved cases?
1. CCn1nc(-c2cnc(N)c(OC(F)F)c2)c2ccn([C@H]3CCOC[C@H]3OC3CC3)c(=O)c21 32 nM
2. CCc1nc(-c2cnc(N)c(OC(F)(F)F)c2)c2ccc(C3(N4CCOCC4)CC3)cn12 31 nM
3. CCc1nc(-c2cnc(N)c(OC(F)(F)F)c2)c2ccc([C@@]3(C)COCCN3C)cn12 29 nM
4. CCn1nc(-c2cnc(N)c(OC(F)(F)F)c2)c2ccn([C@@H]3CCOC3)c(=O)c21 120 nM

Looking for the measured IC50 of `Nc1ncc(-c2ncn3cc(C4CCN(C5COC5)CC4)ccc23)cc1C(F)(F)F` , can you help?
134 nM

How about `CCc1nc(-c2cnc(N)c(OC(F)(F)F)c2)c2cc(C)c([C@H]3COCCN3C)cn12` ?
290 nM

How about `CN1CCCC[C@H]1c1ccc2c(-c3cnc(N)c(C(F)(F)F)c3)ncn2c1` ?
90 nM

How about `CCn1nc(-c2cnc(N)c(OC(F)F)c2)c2ccn([C@H]3CCOC[C@H]3OC3CCC3)c(=O)c21` ?
35 nM

How about `CCn1nc(-c2cnc(N)c(OC(F)(F)F)c2)c2ccn(C3COC3)c(=O)c21` ?
440 nM
